Test: Cytotoxicity against MT4 cells by MTT assay
Assay type: cell-based
Details: human, read-out: LC50 (the source's name)
quantity_kind: CC50 (µM)
Quick note: give the figure in µM, leave out the unit.

{"columns": ["molecule", "recorded_result"],
 "data": [
  ["Cc1cc(C)c(NC(CSc2cccc3ccccc23)C(=O)N[C@@H](Cc2ccccc2)[C@H](O)C(=O)N2CSC(C)(C)[C@H]2C(=O)NCc2ccccc2C)c(C)c1 (stereo partly specified)", 4.4],
  ["CC(=O)NC(CSc1cccc2ccccc12)C(=O)N[C@@H](Cc1ccccc1)[C@H](O)C(=O)N1CSC(C)(C)[C@H]1C(=O)NCc1ccccc1C (stereo partly specified)", 8],
  ["CC(=O)NC(CSc1ccc2ccccc2c1)C(=O)N[C@@H](Cc1ccccc1)[C@H](O)C(=O)N1CSC(C)(C)[C@H]1C(=O)NCc1ccccc1C (stereo partly specified)", 8.3]
]}

Then there is this molecule:
[Q] Name the recorded CC50 of the item COc1ccc(CSC[C@@H](NC(C)=O)C(=O)N[C@@H](Cc2ccccc2)[C@H](O)C(=O)N2CSC(C)(C)[C@H]2C(=O)NCc2ccccc2C)cc1 in your answer.
[A] 17
